Sourced from patent US20240294635A1

subject_of_test: T1, human CD47 protein, His Tag (ACRObiosystems, Cat. No. CD7-H5227) (human, UniProt Q08722 19-139)
T1 construct: bought reagent; also called CD47-His; hCD47-His Tag; not shown: His tag
assay_details: ELISA, CD47-His coated, competition with Human-SIRPα-mFc
# IC50 per entry
Please state the value followed by its unit.

# binder, IC50
data = [
    ("hz3F10-4.1 (antibody, human IgG4 S228P, kappa, V domains shown, humanized 3F10, full-length heavy and light chains) VH: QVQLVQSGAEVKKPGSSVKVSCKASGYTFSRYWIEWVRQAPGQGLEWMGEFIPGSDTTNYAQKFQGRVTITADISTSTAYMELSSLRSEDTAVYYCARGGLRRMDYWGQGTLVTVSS VL: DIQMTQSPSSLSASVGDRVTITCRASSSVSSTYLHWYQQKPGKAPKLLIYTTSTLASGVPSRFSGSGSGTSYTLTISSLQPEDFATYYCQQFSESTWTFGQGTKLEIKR", "1.95 µg/mL"),
]

Okay, now this binder:
Looking up hz3F10-2.2 (antibody, human IgG4 S228P, kappa, V domains shown, humanized 3F10, full-length heavy and light chains) VH: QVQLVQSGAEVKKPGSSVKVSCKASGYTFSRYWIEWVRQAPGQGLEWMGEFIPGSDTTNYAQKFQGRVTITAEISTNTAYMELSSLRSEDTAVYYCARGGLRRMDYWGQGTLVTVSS VL: DIQMTQSPSSLSASVGDRVTITCRASSSVSSTYLHWYQQKPGKAPKLLIYTTSTLASGVPSRFSGSGSGTDFTLTISSLQPEDFATYYCQQFSESTWTFGQGTKLEIKR , I see its IC50 listed as 1.73 µg/mL
